B1: ZBED2 (parent)
chain: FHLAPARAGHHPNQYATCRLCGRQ

Variants of: B1
Test: protein stability index of a GFP-peptide fusion (GPS, HEK-293T) (PSI 1-6); higher = more stable;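 note: lentivirally expressed fusions sorted by FACS into six bins by GFP to DsRed ratio, PSI derived from sequencing read proportions per bin multiplied by bin number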
Settings: c terminus: a fixed tail appended
Listing: protein stability index of selected variants
Reply with the value as a number alone.

Solved entries (count: 8):
FHLAPYRAGHHPNQYATCRLCGRQ [A6Y]    2.19
FHLAPARAGHGPNQYATCRLCGRQ [H11G]    2.01
FHLAPARAGHHPNDYATCRLCGRQ [Q14D]    1.99
FHLAPARAGHHPNQYATHRLCGRQ [C18H]    2.27
FHLAPARAGHHPTQYATCRLCGRQ [N13T]    1.52
FHLAPARAGHHPNQYANCRLCGRQ [T17N]    1.99
FHHAPARAGHHPNQYATCRLCGRQ [L3H]    1.71
FHLAPARAHHHPNQYATCRLCGRQ [G9H]    2.22

Prompt: Which protein stability index value is on record for FHLAPARTGHHPNQYATCRLCGRQ [A8T] ?
Completion: 1.83

Prompt: Could you share which protein stability index value was measured for FHLAPARAGHHPNQYASCRLCGRQ [T17S] ?
Completion: 2.47

Prompt: Dear colleague, I am looking for the recorded protein stability index of the following variant: FHLAPHRAGHHPNQYATCRLCGRQ [A6H]
Completion: 1.92

Prompt: If you can, please state the reported protein stability index value of DHLAPARAGHHPNQYATCRLCGRQ [F1D] .
Completion: 3.36

Prompt: Give its protein stability index value. Item: FHLAPARAGHHPNQYATCSLCGRQ [R19S]
Completion: 1.92

Prompt: Quick one: protein stability index for FHDAPARAGHHPNQYATCRLCGRQ [L3D] ?
Completion: 2.5

Prompt: Look up protein stability index for this variant: FHLAPARAGHHPAQYATCRLCGRQ [N13A]
Completion: 2.34

Prompt: Can you share its protein stability index? I mean this variant: FHLAPARAGHHPNQYITCRLCGRQ [A16I]
Completion: 2.69
